- Tested on: TK-10
- assay_notes: NCI tumour cell line growth inhibition, 48 h
Activity calls are given as the source filed them. Rule as the data show it: active = GI50 up to about 1.1 µM and inactive = higher.
GI50 reference
readout_label: GI50

| compound | readout_label | measured |
| --- | --- | --- |
| Cc1ccc(C(=O)N/N=C(\N=N\c2cccc(C)c2)c2ccc(N(CCC#N)CCC#N)cc2C)cc1 | GI50 | > 100 µM (inactive) |
| COC1(OC)C2C=CC1C([C@](C)(N)CO)C2 (stereo partly specified) | GI50 | > 100 µM (inactive) |
| N#CCC(=O)N/N=C1/C(=O)N(c2cc(Cl)ccc2Cl)C(=O)C(=O)C1c1nc2ccccc2s1 (stereo unspecified) | GI50 | 81.8 µM (inactive) |
| Clc1ccc(-c2cc(-c3nc4ccccc4[nH]3)no2)cc1 | GI50 | 21.9 µM (inactive) |
| Cc1nc(Cl)c(Cl)c(Cl)n1 | GI50 | 1.08 µM (active) |
| CCOC(=O)C(=CNC(=S)c1ccncc1)C(=O)OCC | GI50 | > 100 µM (inactive) |
